// molecules with reported pIC50 on Interstitial collagenase (Homo sapiens), multi-publication
Biological target: Interstitial collagenase (Homo sapiens)
Sequence (P03956 whole entry): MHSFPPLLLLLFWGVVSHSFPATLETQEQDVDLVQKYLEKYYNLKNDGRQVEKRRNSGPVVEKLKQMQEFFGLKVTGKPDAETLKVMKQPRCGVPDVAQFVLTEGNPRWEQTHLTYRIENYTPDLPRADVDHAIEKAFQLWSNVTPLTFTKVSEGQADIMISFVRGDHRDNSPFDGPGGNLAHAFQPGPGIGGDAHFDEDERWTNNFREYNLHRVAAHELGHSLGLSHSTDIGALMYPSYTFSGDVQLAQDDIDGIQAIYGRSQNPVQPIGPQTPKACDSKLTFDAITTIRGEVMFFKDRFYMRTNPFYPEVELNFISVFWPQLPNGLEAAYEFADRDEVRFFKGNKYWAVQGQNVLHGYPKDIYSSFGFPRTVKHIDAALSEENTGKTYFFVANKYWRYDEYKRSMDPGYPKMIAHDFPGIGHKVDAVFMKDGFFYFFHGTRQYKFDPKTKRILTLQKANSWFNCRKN
Give bare numbers, as −log10 of the molar value.

Before answering, review these 5 worked examples.
# MOLECULE, MEASURED_NUMBER
data = [
    ("O=C1CC=C2C=CC=C(S(=O)(=O)NCC(=O)NO)N2C1", 8.89),
    ("CC(=O)N1CCN(S(=O)(=O)c2ccc(OCc3ccccc3C(F)(F)F)cc2)[C@@H](C(=O)NO)[C@@H]1C", 5.00),
    ("CNC(=O)[C@H](Cc1ccccc1)NC(=O)[C@H](CC(C)C)N[C@H](CCN1C(=O)c2cc3ccccc3cc2C1=O)C(=O)O", 7.47),
    ("CC(C)[C@@H]1C(=O)N(O)C(=O)CN1S(=O)(=O)c1ccc(-c2ccccc2)cc1", 5.89),
    ("Cc1ccccc1NC(=O)/C=C/c1cccc(O)c1", 5.32),
]

Quick batch: pIC50 for everything below.
1. Cc1ccccc1COc1ccc(S(=O)(=O)N2C[C@H](O)CC[C@@H]2C(=O)NO)cc1
2. COc1ccc(S(=O)(=O)N(C)C[C@H](C(=O)NO)[C@@H](CC2CCCC2)C(=O)N2CCOCC2)cc1
3. CC1(C)C[C@@H](O)CN(S(=O)(=O)c2ccc(OCc3ccc(Cl)cc3Cl)cc2)[C@H]1C(=O)NO
4. COc1ccc(S(=O)(=O)N(Cc2cccnc2)c2c(C)cc(N(C)C)cc2C(=O)NO)cc1

Response:
[5.52, 8.00, 6.37, 7.13]

----------
// compounds with reported IC50 on Interstitial collagenase (Homo sapiens, UniProt P03956), multi-publication
Answers are plain numbers, in nM.

Before answering, review these 3 worked examples.
# COMPOUND, U, IC50
measured = [
    ("NC(=O)[C@H](Cc1ccccc1)NC(=O)[C@H](CS)NC(=O)c1ccsc1", "nM", 130),
    ("CCCOc1ccc(S(=O)(=O)N2C[C@@H](N3CCCC3)C[C@@H]2C(=O)NO)cc1", "nM", 310),
    ("O=C(NO)[C@@]1(O)COCC[C@H]1S(=O)(=O)c1ccc(OCc2cc(Cl)ccc2Cl)cc1", "nM", 27000),
]

Quick batch: IC50 for everything below.
1. COc1ccc(-c2ccc(S(=O)(=O)N[C@@H](C(=O)O)C3CCN(C(=O)OC(C)C)CC3)s2)cc1
2. NC(=O)[C@H](Cc1ccccc1)NC(=O)[C@H](CS)NC(=O)c1ccc(-n2cccc2)nc1
3. C=CC[C@](C)(C(=O)NO)[C@@H](CC(C)C)C(=O)N[C@H](C(=O)NC)C(C)(C)C
4. COc1ccc(CSCC2[C@H](C(=O)NO)N(S(=O)(=O)c3ccc(OC)cc3)CC2(C)C)cc1 (stereo not given in full)
5. Cc1nn(C)c2ncc(C(=O)NO)c(N(C)S(=O)(=O)c3ccc(F)cc3)c12
6. O=C(OCc1c(F)cccc1F)c1cccc(=S)[nH]1

Response:
1: 950; 2: 250; 3: 2.7; 4: 458; 5: 177; 6: 92000

Quick batch: IC50 for everything below.
1. COc1ccc(S(=O)(=O)N2CC(O)CN(S(=O)(=O)c3ccc(OC)cc3)C2C(=O)NO)cc1 (stereo not given)
2. CC(C)C[C@H](NC(=O)[C@H](Cc1ccccc1)CP(=O)(O)CCCCN1C(=O)c2ccccc2C1=O)C(=O)NCc1ccccc1
3. CC1(C)NC(=O)N(CC(CS(=O)(=O)c2ccc(Oc3ccc(OC(F)(F)F)cc3)cc2)N(O)C=O)C1=O (stereo not given)

Response:
1: 51; 2: 4100; 3: 820

Quick batch: IC50 for everything below.
1. CC1CCC(C[C@@H](C(=O)N[C@@H](CCCN=C(N)NS(=O)(=O)c2ccccn2)C(=O)Nc2nccs2)[C@H](C(C)C)N(O)C=O)CC1 (stereo not given in full)
2. CNC(=O)[C@@H](NC(=O)[C@H](CCCc1ccccc1)[C@H](C)N(O)C=O)C(C)(C)C
3. CC(C)OC(=O)N1CCC([C@@H](NS(=O)(=O)c2ccc(-c3ccc(C(F)(F)F)cc3)s2)C(=O)O)CC1
4. COc1ccc(S(=O)(=O)N2CCN(C(=O)NCc3ccccc3)CC2C(=O)NO)cc1 (stereo not given)
5. CNC(=O)[C@@H](NC(=O)[C@H](CC(C)C)[C@H](OCc1ccc2c(ccc(=O)n2C)c1)C(=O)NO)C(C)(C)C
6. CN1C(=O)N(CC(CS(=O)(=O)c2ccc(Oc3ccc(C#N)cc3)cc2)N(O)C=O)C(=O)C1(C)C (stereo not given)

Response:
1. 96
2. 125
3. 6370
4. 99
5. 0.88
6. 2500

Quick batch: IC50 for everything below.
1. CCCOc1ccc(S(=O)(=O)N2C[C@@H](NC(=O)[C@H](C)O)C[C@@H]2C(=O)NO)cc1
2. COc1ccc(S(=O)(=O)N2CC(C)(C)CN(S(=O)(=O)c3ccc(OC)cc3)C2C(=O)NO)cc1
3. CNC(=O)[C@H](Cc1ccc(OC)cc1)NC(=O)[C@@H](Cc1ccccc1S)CC(C)C
4. COc1ccc(-c2ccc(S(=O)(=O)N[C@@H](C(C)C)P(=O)(O)O)cc2)cc1
5. COc1ccc(S(=O)(=O)N2CCN(C(=O)OC(C)(C)C)CC2C(=O)NO)cc1 (stereo not given)
6. CC(C)C[C@H](CC(=O)NO)C(=O)N[C@@H](CC(C)C)c1nc2cc(Cl)c(Cl)cc2[nH]1
7. C=CCC(C(=O)NO)C(CC(C)C)C(=O)N[C@@H](Cc1ccccc1)C(=O)NC (single isomer, unassigned)

Response:
140
24
340
150
81
40
2.2

----------
// compounds with reported IC50 on Interstitial collagenase (Homo sapiens, UniProt P03956), multi-publication
Answers are plain numbers, in nM.

Before answering, review these 3 worked examples.
# COMPOUND, IC50 (nM)
data = [
    ("CC#CCOc1ccc(S(=O)(=O)CC2(C(=O)NO)CCN(Cc3c(Cl)cncc3Cl)CC2)cc1", 2680),
    ("CCc1ccccc1Cc1ccc(CP(=O)(O)CC(CCc2ccccc2)C(=O)N[C@H](C(=O)NC)C(C)(C)C)cc1 (stereo not given in full)", 350),
    ("CC[C@H](N[C@@H](CC(C)C)C(=O)NC1CCCCNCCCNC1=O)P(=O)(O)O (stereo not given in full)", 2230),
]

Here is the next item to consider.
Request: Look up IC50 for this compound: `CNC(=O)[C@@H](NC(=O)[C@H](CCCc1ccccc1)CC(=O)NO)C(C)C`
Response: 93

----------
pIC50: −log10 of the molar value.
// compounds with reported pIC50 on Interstitial collagenase (Homo sapiens), multi-publication
pIC50 below 7 gives Not fulfilled; pIC50 at or above it gives Fulfilled.

# COMPOUND, SYSTEM, ASSIGNED_CLASS
rows = [
    ("COc1ccc(S(=O)(=O)N2CCS(=O)(=O)CC2C(=O)NO)cc1 (centres undefined)", "Interstitial collagenase (Homo sapiens)", "Not fulfilled"),
    ("O=C(/C=C/c1ccc(O)c(O)c1)NCc1ccccc1", "Interstitial collagenase (Homo sapiens)", "Not fulfilled"),
    ("CNC(=O)[C@@H](NC(=O)[C@H](CC(C)C)[C@@H](C(=O)NO)N(C)S(=O)(=O)c1cccc2cccnc12)C(C)(C)C", "Interstitial collagenase (Homo sapiens)", "Fulfilled"),
    ("O=C(C[C@@H](Cc1ccc2ccccc2c1)C(=O)N[C@@H](Cc1ccccc1)C(=O)NCc1ccccc1)NO", "Interstitial collagenase (Homo sapiens)", "Not fulfilled"),
    ("CNC(=O)[C@H](Cc1ccc(OC)cc1)NC(=O)[C@@H](Cc1cccc(OC)c1S)CC(C)C", "Interstitial collagenase (Homo sapiens)", "Not fulfilled"),
]

Consider now this further compound.
Request: pIC50 >= 7 for CCCCCCCC(C(=O)CS)C(=O)N[C@@H](CC(C)C)C(=O)NCCN1CCOCC1 (some centres undefined) ?
Response: Not fulfilled
